- Study system: human P2X2/3 receptors (Homo sapiens, UniProt P56373+Q9UBL9)
- Construct: expressed in transfected cells; host or cells: human astrocytoma 1321N1 (1312N1 [sic])
- Sequence (P56373 whole entry): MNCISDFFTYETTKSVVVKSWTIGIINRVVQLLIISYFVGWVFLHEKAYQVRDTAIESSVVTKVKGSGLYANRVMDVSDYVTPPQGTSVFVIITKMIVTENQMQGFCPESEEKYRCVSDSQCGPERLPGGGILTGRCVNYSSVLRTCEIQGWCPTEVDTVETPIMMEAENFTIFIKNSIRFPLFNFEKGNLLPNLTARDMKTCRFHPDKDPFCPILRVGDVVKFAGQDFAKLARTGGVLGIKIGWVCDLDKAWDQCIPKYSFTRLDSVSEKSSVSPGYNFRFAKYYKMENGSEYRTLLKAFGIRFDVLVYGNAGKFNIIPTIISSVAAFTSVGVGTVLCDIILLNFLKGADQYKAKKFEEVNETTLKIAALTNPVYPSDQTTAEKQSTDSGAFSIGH
- Sequence (Q9UBL9 whole entry): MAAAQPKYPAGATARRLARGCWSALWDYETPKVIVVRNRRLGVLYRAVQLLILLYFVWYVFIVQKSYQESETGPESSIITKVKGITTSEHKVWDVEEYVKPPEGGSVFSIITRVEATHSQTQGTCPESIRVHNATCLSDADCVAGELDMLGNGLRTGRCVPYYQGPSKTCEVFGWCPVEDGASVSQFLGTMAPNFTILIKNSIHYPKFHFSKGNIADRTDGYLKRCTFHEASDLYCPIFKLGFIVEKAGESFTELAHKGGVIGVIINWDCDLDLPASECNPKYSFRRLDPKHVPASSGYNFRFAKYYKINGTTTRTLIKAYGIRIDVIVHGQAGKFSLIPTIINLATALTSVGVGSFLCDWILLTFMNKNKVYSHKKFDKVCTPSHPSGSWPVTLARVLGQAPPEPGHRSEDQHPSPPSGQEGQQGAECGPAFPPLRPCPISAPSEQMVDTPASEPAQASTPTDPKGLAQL
- Run description: Intracellular calcium measurement, antagonist activity at human P2X2/3 receptors (hP2X23 1321N1), Fluo8
- Assay type: cell-based
- Condition label: ratio of column 4) hP2X2/3 to column 3) hP2X3, 1321N1
Measure name: hP2X23/hP2X3* Selectivity (1321N1)

Here's what some known entries look like.
INSERT INTO measurements (compound, measure_name, observed_value) VALUES
  ('CC(C)N1Cc2c(n(CC(=O)Nc3ccc(F)cn3)c3cc(C(=O)Nc4ccccc4F)nn3c2=O)C1=O [Example 200]', 'hP2X23/hP2X3* Selectivity (1321N1)', 105),
  ('CC(C)(C)c1cc2n(CC(=O)Nc3ccc(F)cn3)c3c(c(=O)n2n1)CN(CC1CCOCC1)C3=O [Example 28]', 'hP2X23/hP2X3* Selectivity (1321N1)', 30);

[A] COCCN1Cc2c(n(CC(=O)Nc3ccc(F)cn3)c3cc(C(C)(C)C)nn3c2=O)C1=O [Example 49]
[B] COC[C@H](C)N1Cc2c(n(CC(=O)Nc3ccc(F)cn3)c3cc(C4CCC4)nn3c2=O)C1=O [Example 110]
Consider entries A and B . Which has the numerically lower hP2X23/hP2X3* Selectivity (1321N1)? State your choice using its label.
A
(A: 119, B: 254)

----------
- Study system: human P2X2/3 receptors (Homo sapiens, UniProt P56373+Q9UBL9)
- Construct: expressed in transfected cells; host or cells: human astrocytoma 1321N1 (1312N1 [sic])
- Run description: Intracellular calcium measurement, antagonist activity at human P2X2/3 receptors (hP2X23 1321N1), Fluo8
- Type: cell-based
- Condition label: ratio of column 4) hP2X2/3 to column 3) hP2X3, 1321N1
Measure name: hP2X23/hP2X3* Selectivity (1321N1)

Here's what some known entries look like.
INSERT INTO measurements (compound, study_system, observed_value) VALUES
  ('CC(C)N1Cc2c(n(CC(=O)Nc3ccc(F)cn3)c3cc(CC4CCOCC4)nn3c2=O)C1=O [Example 96]', 'human P2X2/3 receptors (Homo sapiens, UniProt P56373+Q9UBL9)', 345),
  ('COCC(=O)Nc1cc2n(CC(=O)Nc3ccc(F)cn3)c3c(c(=O)n2n1)CN(C(C)C)C3=O [Example 285]', 'human P2X2/3 receptors (Homo sapiens, UniProt P56373+Q9UBL9)', 84);

[1] CCc1cc2n(CC(=O)Nc3ccc(F)cn3)c3c(c(=O)n2n1)CN(C1CCN(C(=O)OC(C)(C)C)C1)C3=O (stereo not shown) [Example 78]
[2] CC(C)N1Cc2c(n(CC(=O)Nc3ccc(F)cn3)c3cc(C4CNC4)nn3c2=O)C1=O.Cl [Example 244]
[3] COC[C@H](C)N1Cc2c(n(CC(=O)Nc3ccc(F)cn3)c3cc(N(C)C)nn3c2=O)C1=O [Example 177]
# sort list by recorded hP2X23/hP2X3* Selectivity (1321N1), greatest to least Would you mind listing the labels in the order requested?
3, 1, 2

----------
- Study system: human P2X2/3 receptors (Homo sapiens, UniProt P56373+Q9UBL9)
- Construct: expressed in transfected cells; host or cells: human astrocytoma 1321N1 (1312N1 [sic])
- Run description: Intracellular calcium measurement, antagonist activity at human P2X2/3 receptors (hP2X23 1321N1), Fluo8
- Assay type: cell-based
- Condition label: column 4); 1321N1 cells, human P2X2/3, Fluo8, agonist ATP at EC50; read-out: 4) hP2X2/3 IC50 [nM] (1321N1)
Measure name: IC50 (nM)

Here's what some known entries look like.
INSERT INTO measurements (compound, measure_name, observed_value) VALUES
  ('CCc1cc2n(CC(=O)Nc3ccc(F)cn3)c3c(c(=O)n2n1)CN(C[C@H]1CN(C2CCC2)CCO1)C3=O [Example 257]', 'IC50', 660),
  ('CC(C)N1Cc2c(n(CC(=O)Nc3ccc(F)cn3)c3cc(NC4CCCC4)nn3c2=O)C1=O [Example 168]', 'IC50', 2350),
  ('CC(C)N1Cc2c(n(CC(=O)Nc3ccc(F)cn3)c3cc(C4CCN(C5CCC5)C4)nn3c2=O)C1=O (centres unmarked) [Example 250]', 'IC50', 4300);

[A] COC[C@H](C)N1Cc2c(n(CC(=O)Nc3ccc(F)cn3)c3cc(-c4ccc(C)cn4)nn3c2=O)C1=O [Example 162]
[B] COC[C@H](C)N1Cc2c(n(CC(=O)Nc3ccc(F)cn3)c3cc(-c4ccnc(C)c4)nn3c2=O)C1=O [Example 153]
Could you please tell me which of these two has the higher IC50: A or B ? State your choice using its label.
B
(B: 2350 nM, A: 1200 nM)

[A] CCc1cc2n(CC(=O)Nc3ccc(F)cn3)c3c(c(=O)n2n1)CN(C[C@@H]1COCCN1CCC(F)(F)F)C3=O [Example 261]
[B] Cc1ccc(-c2cc3n(CC(=O)Nc4ccc(F)cn4)c4c(c(=O)n3n2)CN([C@@H]2CCOC2)C4=O)nc1 [Example 160]
[C] CCc1cc2n(CC(=O)Nc3ccc(C)cn3)c3c(c(=O)n2n1)CN(C(C)C)C3=O [Example 65]
[D] Cc1ccc(-c2cc3n(CC(=O)Nc4ccc(F)cn4)c4c(c(=O)n3n2)CN([C@H]2CCOC2)C4=O)nc1 [Example 161]
# sort list by recorded IC50, greatest to least Would you mind listing the labels in the order requested?
C, A, B, D
(C: 10500 nM, A: 5550 nM, B: 2200 nM, D: 1350 nM)

[P] CC(C)N1Cc2c(n(CC(=O)Nc3ccc(F)cn3)c3cc(N4CCN(C)CC4)nn3c2=O)C1=O [Example 181]
[Q] COC[C@H](C)N1Cc2c(n(CC(=O)Nc3ccc(F)cn3)c3cc(C(=O)N4CCCCC4)nn3c2=O)C1=O [Example 198]
Could you please tell me which of these two has the higher IC50: P or Q ? State your choice using its label.
Q
(Q: 9300 nM, P: 5550 nM)

[I] Cc1cc(C)c(-c2cc3n(CC(=O)Nc4ccc(F)cn4)c4c(c(=O)n3n2)CN(C(C)C)C4=O)cn1 [Example 156]
[II] CCc1cc2n(CC(=O)Nc3ccc(F)cn3)c3c(c(=O)n2n1)CN(C[C@H]1CN(C2CC2)CCO1)C3=O [Example 258]
[III] COC[C@H](C)N1Cc2c(n(CC(=O)Nc3ccc(F)cn3)c3cc(C(=O)N(C)CC4CC4)nn3c2=O)C1=O [Example 195]
[IV] COC[C@H](C)N1Cc2c(n(CC(=O)Nc3ccc(F)cn3)c3cc(-c4ccc(C)nc4)nn3c2=O)C1=O [Example 151]
[V] CCc1cc2n(CC(=O)Nc3ccc(Cl)cn3)c3c(c(=O)n2n1)CN(CC1CCCO1)C3=O (centres unmarked) [Example 62]
# sort list by recorded IC50, greatest to least Would you mind listing the labels in the order requested?
III, V, II, IV, I
(III: 8900 nM, V: 5150 nM, II: 1080 nM, IV: 580 nM, I: 295 nM)

[P] COC[C@@H](C)N1Cc2c(n(CC(=O)Nc3ccc(F)cn3)c3cc(C(C)(C)C)nn3c2=O)C1=O [Example 43]
[Q] COCCN1Cc2c(n(CC(=O)Nc3ccc(F)cn3)c3cc(C4CCOCC4)nn3c2=O)C1=O [Example 97]
Could you please tell me which of these two has the higher IC50: P or Q ? State your choice using its label.
Q
(Q: 9750 nM, P: 6500 nM)

Cited source: patent US11319324B2
